Target: T1, 4H2078-AA
T1 chain: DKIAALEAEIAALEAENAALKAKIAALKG
Assay: two-hybrid library CCmax;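 also: natural log of median RNA to DNA barcode read ratio; higher means stronger binding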
Details: mean of both orientations

binder	interaction score
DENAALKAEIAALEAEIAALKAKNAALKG [4H1552-AA]	-0.958
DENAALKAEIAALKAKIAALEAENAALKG [4H1636-AA]	-1.57
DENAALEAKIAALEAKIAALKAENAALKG [4H1324-AA]	1.78
